Below, each of the compounds is paired with its reported nuclei count value.
Assay: endothelial E-selectin expression blockers – imaging, HUVEC, immunofluorescence, MLSMR starter and 10KST1 sets, primary screen (AID 487);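 also: 100% = median nuclei count of all wells on the same plate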
Details: HUVEC TNFalpha-induced E-selectin immunofluorescence imaging, at 2 µM; measured here: cell number, toxicity
Number in %, nothing else.

| compound | nuclei count, % |
| --- | --- |
| CCSc1ccccc1C(=O)Nc1cccc(OC)c1 | 75 |
| Cc1cc(C)c2[nH]c(=O)c(C(c3nnnn3Cc3ccc4c(c3)OCO4)N3CCC(C)CC3)cc2c1 (configuration not stated) | 73.2 |
| O=C(NCCN1C(=O)C2C3C=CC(C3)C2C1=O)N1CCCCC1 (configuration not stated) | 99.5 |
| CN(C)CCCN1C(=O)C(=O)/C(=C(/O)c2ccncc2)C1c1cccc(Br)c1 (configuration not stated) | 103 |
| CCOC(=O)c1ccc(N(CC(=O)NC2CCCC2)C(=O)CNC(=O)c2ccco2)cc1 | 105 |
| Cc1cc(NC(=O)c2cnn3c(C(F)F)cc(C4CC4)nc23)no1 | 98.5 |

What the record says about CC(=O)Nc1c2c(nn1-c1ccc(C)cc1C)CSC2 : nuclei count is 103

What the record says about COc1ccc2ccccc2c1CN1CCN(C)CC1 : nuclei count is 123

What the record says about COC(=O)c1ccc(CSc2nc3c(cnn3-c3ccc(F)cc3)c(=O)[nH]2)o1 : nuclei count is 113

What the record says about CC(C)c1ccc(S(=O)(=O)N2CCN(CCC(=O)Nc3ccc(N(C)C)cc3)CC2)cc1 : nuclei count is 89.3

What the record says about COCCN1CCN(c2c(C)c(C)nc3cc(-c4cccc(OC)c4)nn23)CC1 : nuclei count is 106

What the record says about CSc1ccccc1N=CC1=C(O)CC(C)(C)CC1=O : nuclei count is 119

What the record says about Cc1nn(S(=O)(=O)N2CCCCC2)c(C)c1Br : nuclei count is 119

What the record says about c1ccc(CN2CCN(CCCNc3ccc4nnc(-c5ccccc5)n4n3)CC2)cc1 : nuclei count is 102

What the record says about Cc1[nH]nc2c1C1(C(=O)N(Cc3ccc(Cl)cc3)c3ccccc31)C(C#N)=C(N)O2 (configuration not stated) : nuclei count is 114

###

Experiment: TLR3 IRF3 reporter activation blockers – cell-based, poly I:C stimulus, luciferase, 10K MLSCN set, primary screen (AID 602277)
Conditions: HEK293-TLR3 RL24 IRF3 luciferase reporter, at 10 µM, stronger effect = higher value
Below, each of the compounds is paired with its reported inhibition value.
Number in %, nothing else.

Reference set (4 entries):
| compound | property_name | unit_abbrev | reported_value |
| --- | --- | --- | --- |
| COc1ccccc1N1CCN(C(=O)N2CCOCC2)CC1 | inhibition | % | 26.2 |
| COc1cc(C2c3c(n[nH]c3C)C(=O)N2c2ccc(Br)cc2)ccc1O (stereo unspecified) | inhibition | % | 24.2 |
| CN(C)C(=O)N1CCN(C(=O)c2ccco2)CC1 | inhibition | % | 19.5 |
| CC1(C)CC(=O)CC(C2(O)C(=O)N(Cc3ccccc3)c3ccccc32)O1 (stereo unspecified) | inhibition | % | -5.31 |

What the record says about CC1CCN(S(=O)(=O)c2ccc3[nH]cc(C(=O)NCCN4CCOCC4)c(=O)c3c2)CC1 : inhibition is 17.9

What the record says about Cn1c(=O)c(=O)n(C)c2cc(S(=O)(=O)N3CCCCC3)ccc21 : inhibition is 14.6

What the record says about Cc1nc2ccc(S(=O)(=O)NCC(=O)N3CCCCC3)cc2s1 : inhibition is -1.82

Taken from PubChem BioAssay.
